- assayProcedure: Tissue distribution (biodistribution) of radioiodinated compound in the rat
- statedConditions: rat, iv, 60 min
observable: Heart: Blood Ratio
Keep it simple and answer with nothing but the number.

Illustrative cases are given below, each with its answer.
>>> testresult("OC(CN1CCC(c2ccccc2)CC1)c1ccc([125I])cc1 (single isomer, unassigned; (+)) [(+)-[^125 l]13]")
8.2
>>> testresult("OC(Cc1cccc([125I])c1)CN1CCC(c2ccccc2)CC1 (single isomer, unassigned; (+)) [(+)-[^125 l]12]")
4.2

Query :: Entry OC(Cc1cccc([125I])c1)CN1CCC(c2ccccc2)CC1 (single isomer, unassigned; (-)) [(-)-[^125 l]12] has what Heart: Blood Ratio?
Result :: 1.9

Query :: Form field: reported Heart: Blood Ratio of OC(Cc1ccc([125I])cc1)CN1CCC(c2ccccc2)CC1 (single isomer, unassigned; (-)) [(-)-4-[^125 l]HIPP]
Result :: 40.3

Query :: Please give the measured Heart: Blood Ratio for this compound: OC(Cc1ccc([125I])cc1)CN1CCC(c2ccccc2)CC1 (single isomer, unassigned; (+)) [(+)-4-[^125 l]HIPP]
Result :: 40.2

Query :: Data request, read-out Heart: Blood Ratio, for OC(CN1CCC(c2ccccc2)CC1)c1ccc([125I])cc1 (single isomer, unassigned; (-)) [(-)-[^125 l]13]
Result :: 2.0

Source: patent US5358712A
